- systemTested: Arginase-2, mitochondrial (Homo sapiens)
- assay: in vitro enzyme assay to detect the production of urea directly proportional to the activity of Arginase II
- Type: functional
- Set-up: scale not given: in the data most compounds retested in dose-response had high values
- conditionNotes: 33.3 µM
endpointLabel: Percent Effect (%)
Express it in %; write the number only.

Data request: Record NC(=O)C1CN(C(=O)Nc2ccccc2SC(F)(F)F)CCO1 (stereo not drawn) : what is its Percent Effect with Arginase-2, mitochondrial (Homo sapiens)?
Data returned: -1.29

Data request: Record COc1ccccc1CNC(=O)Cn1ncc2c1c(C)nn2C : what is its Percent Effect with Arginase-2, mitochondrial (Homo sapiens)?
Data returned: -15

Data request: Record C[S+]([O-])c1nncn1CC(=O)c1ccc2c(c1)CCO2 (stereo not drawn) : what is its Percent Effect with Arginase-2, mitochondrial (Homo sapiens)?
Data returned: 26.6

Data request: Record O=C(COc1coc(CN2CCCC2)cc1=O)NCc1ccccc1Cl : what is its Percent Effect with Arginase-2, mitochondrial (Homo sapiens)?
Data returned: -1.94

Data request: Record c1csc(CN2CCn3c(Cn4cncn4)cnc3C2)n1 : what is its Percent Effect with Arginase-2, mitochondrial (Homo sapiens)?
Data returned: 4.43

Data request: Record Cc1cnn(CC2CCCN2Cc2nccn2C)c1 (stereo not drawn) : what is its Percent Effect with Arginase-2, mitochondrial (Homo sapiens)?
Data returned: 1.5

Data request: Record Cc1cc(CN2CCc3nn(C(C)C)c(=O)cc3C2)no1 : what is its Percent Effect with Arginase-2, mitochondrial (Homo sapiens)?
Data returned: 0.833

Data request: Record COc1ccnc(N2CCN(CC(=O)N3CCOCC3)CC2)n1 : what is its Percent Effect with Arginase-2, mitochondrial (Homo sapiens)?
Data returned: -5.04

Data request: Record COCCNC(=O)[C@@H]1CC[C@@H]2[C@@H](CCN2Cc2cnn(C)c2)O1 : what is its Percent Effect with Arginase-2, mitochondrial (Homo sapiens)?
Data returned: -43.5

Data request: Record CCN(Cc1cccc(Cl)c1)Cc1nc2c(cnn2C)c(=O)[nH]1 : what is its Percent Effect with Arginase-2, mitochondrial (Homo sapiens)?
Data returned: -1.47

Data request: Record CC(C(=O)Nc1cccc(N2CCCCC2)c1)n1cncn1 (stereo not drawn) : what is its Percent Effect with Arginase-2, mitochondrial (Homo sapiens)?
Data returned: -3.61

Data request: Record COc1ncccc1CN1Cc2nnn(C)c2C(COCC2CC2)C1 (stereo not drawn) : what is its Percent Effect with Arginase-2, mitochondrial (Homo sapiens)?
Data returned: 3.23

Data request: Record CSCCCN1CC[C@@H](NC(=O)c2cnccn2)[C@H](O)C1 : what is its Percent Effect with Arginase-2, mitochondrial (Homo sapiens)?
Data returned: -1.43

Data request: Record COc1ccccc1C1CNC(=O)c2nc(-c3ncc[nH]3)[nH]c2C1 (stereo not drawn) : what is its Percent Effect with Arginase-2, mitochondrial (Homo sapiens)?
Data returned: 4.29

Data request: Record Cc1cnnn1Cc1ncn2c1CN(Cc1cccs1)CCC2 : what is its Percent Effect with Arginase-2, mitochondrial (Homo sapiens)?
Data returned: -0.955

Data request: Record O=C(CCc1nccs1)N1CCN(c2ccc(Br)cn2)CC1 : what is its Percent Effect with Arginase-2, mitochondrial (Homo sapiens)?
Data returned: -1.05

Data request: Record O=C(NCCOc1ccc2c(c1)OCO2)C1CC(=O)N(CC2CC2)C1 (stereo not drawn) : what is its Percent Effect with Arginase-2, mitochondrial (Homo sapiens)?
Data returned: 0

Data request: Record Cc1cc(NC(=O)NCc2ccccn2)n(C)n1 : what is its Percent Effect with Arginase-2, mitochondrial (Homo sapiens)?
Data returned: -2.37

Data request: Record CS(=O)(=O)NC1CCN(C(=O)NCCc2ccccc2F)CC1 : what is its Percent Effect with Arginase-2, mitochondrial (Homo sapiens)?
Data returned: 2.03

Data request: Record Cc1nc2ccnn2c(C)c1CCC(=O)N1CCC(C(N)=O)CC1 : what is its Percent Effect with Arginase-2, mitochondrial (Homo sapiens)?
Data returned: 2.88

Data request: Record CCCC(=O)N1CCC(O)(Cn2c(CC)nc3ccccc3c2=O)CC1 : what is its Percent Effect with Arginase-2, mitochondrial (Homo sapiens)?
Data returned: -1.16

Data request: Record Cc1ccc(CN2CCc3ncnc(-c4cccnc4)c3CC2)o1 : what is its Percent Effect with Arginase-2, mitochondrial (Homo sapiens)?
Data returned: -5.91

Data request: Record CC(O)CN1CCN(C(=O)c2ccn(-c3cccc(Cl)c3)n2)CC1 (stereo not drawn) : what is its Percent Effect with Arginase-2, mitochondrial (Homo sapiens)?
Data returned: 1.07

Data request: Record CCOCc1cccc(S(=O)(=O)N2CCSCC2)c1 : what is its Percent Effect with Arginase-2, mitochondrial (Homo sapiens)?
Data returned: 0.88

Data request: Record COc1ccc(F)c(CN2CCC3(CCC(=O)N(CC(N)=O)C3)CC2)c1 : what is its Percent Effect with Arginase-2, mitochondrial (Homo sapiens)?
Data returned: -3.12

Data request: Record CCS(=O)(=O)N(C)C(=O)c1cc(C)n(-c2cccc(OC)c2)c1C : what is its Percent Effect with Arginase-2, mitochondrial (Homo sapiens)?
Data returned: -5.32

Data request: Record Cc1nc(C)n(CC2CN(CC(=O)Nc3nccs3)CCO2)n1 (stereo not drawn) : what is its Percent Effect with Arginase-2, mitochondrial (Homo sapiens)?
Data returned: 10.6

Data request: Record Cc1cc(C)c(CNC(=O)N2CCCC2c2ccccc2)c(=O)[nH]1 (stereo not drawn) : what is its Percent Effect with Arginase-2, mitochondrial (Homo sapiens)?
Data returned: 3.23

Data request: Record C=C(C)C(=O)N1CCC(C(=O)c2cc(C)cnc2N)CC1 : what is its Percent Effect with Arginase-2, mitochondrial (Homo sapiens)?
Data returned: -1.63

Data request: Record CC(=O)Nc1nc(C(=O)N2CCCC(n3ccnc3)C2)cs1 (stereo not drawn) : what is its Percent Effect with Arginase-2, mitochondrial (Homo sapiens)?
Data returned: 3.6

Data request: Record OCCOCCN1CCCC1c1nc2cc(F)ccc2[nH]1 (stereo not drawn) : what is its Percent Effect with Arginase-2, mitochondrial (Homo sapiens)?
Data returned: -2.4

Data request: Record CCOc1ccc(N2CCCN=C2NC(=O)c2ccccc2C)cc1 : what is its Percent Effect with Arginase-2, mitochondrial (Homo sapiens)?
Data returned: -5.52

Data request: Record CNS(=O)(=O)c1cccc(CNc2nccc(C(F)(F)F)n2)c1 : what is its Percent Effect with Arginase-2, mitochondrial (Homo sapiens)?
Data returned: -1.6

Data request: Record O=C(NCCCOCC1CCCO1)c1cccnc1N1CCCC1 (stereo not drawn) : what is its Percent Effect with Arginase-2, mitochondrial (Homo sapiens)?
Data returned: 0.833

Data request: Record CCc1n[nH]c(C2CN(Cc3nccn3CC)CCO2)n1 (stereo not drawn) : what is its Percent Effect with Arginase-2, mitochondrial (Homo sapiens)?
Data returned: 6.53

Data request: Record CCOc1ccccc1-c1noc(CN2CC(n3cccn3)C2)n1 : what is its Percent Effect with Arginase-2, mitochondrial (Homo sapiens)?
Data returned: -3.16

Data request: Record O=C(N[C@@H]1CN(Cc2ccc3c(c2)OCO3)[C@@H]2CCCO[C@@H]21)C1CC1 : what is its Percent Effect with Arginase-2, mitochondrial (Homo sapiens)?
Data returned: -55

Data request: Record COCC1CN(Cc2ccc(C)o2)Cc2cn(C)nc21 (stereo not drawn) : what is its Percent Effect with Arginase-2, mitochondrial (Homo sapiens)?
Data returned: -18.5

Data request: Record O=S1(=O)CCCN1Cc1coc(-c2cccs2)n1 : what is its Percent Effect with Arginase-2, mitochondrial (Homo sapiens)?
Data returned: 13.2

Data request: Record COc1ccccc1CC(=O)NS(C)(=O)=O : what is its Percent Effect with Arginase-2, mitochondrial (Homo sapiens)?
Data returned: -1.42

Data request: Record CCOc1ccnc(N2CCN(C(=O)c3cccc(C#N)c3)CC2)n1 : what is its Percent Effect with Arginase-2, mitochondrial (Homo sapiens)?
Data returned: -2.88

Data request: Record Cc1ncsc1CN1C[C@@H](OCC2CC2)[C@H]2OCCC[C@H]21 : what is its Percent Effect with Arginase-2, mitochondrial (Homo sapiens)?
Data returned: -0.248

Data request: Record COc1ccc(C)cc1S(=O)(=O)NCC(c1cccn1C)N(C)C (stereo not drawn) : what is its Percent Effect with Arginase-2, mitochondrial (Homo sapiens)?
Data returned: 1.36

Data request: Record CSCC(C)(O)CNC(=O)c1ccc(Br)cc1C (stereo not drawn) : what is its Percent Effect with Arginase-2, mitochondrial (Homo sapiens)?
Data returned: -1.74

Data request: Record CC(C)(C)NC(=O)CN1CCN(C(=O)Nc2ccc(F)cc2F)CC1 : what is its Percent Effect with Arginase-2, mitochondrial (Homo sapiens)?
Data returned: -0.399

Data request: Record COc1nn(C)cc1C(=O)N1CCC(c2nnc(C3CC3)o2)CC1 : what is its Percent Effect with Arginase-2, mitochondrial (Homo sapiens)?
Data returned: 9.68

Data request: Record CN(Cc1cnn(C)c1)C(=O)NCc1csc(Br)c1 : what is its Percent Effect with Arginase-2, mitochondrial (Homo sapiens)?
Data returned: 2.77

Data request: Record CC1CN(Cc2noc(C3CC3)n2)CCN1Cc1nccn1C (stereo not drawn) : what is its Percent Effect with Arginase-2, mitochondrial (Homo sapiens)?
Data returned: -2.66
